From: patent US8012943B2

Exercise: for every item that follows, state its recorded MIC.
Numbers only here, please. The scale is µg/mL.

(Q) # lookup: S. Typhimurium ATCC 14028 MIC, key = CC[C@H]1OC(=O)[C@H](C)C(=O)[C@H](C)[C@@H](OC2OC(C)CC(N(C)C)C2O)[C@@](C)(OC)C[C@@H](C)C(=O)[C@H](C)[C@H]2N(CCCCn3cc(Cn4nnc5ccccc54)nn3)C(=O)O[C@]12C (some centres unmarked)
(A) 8

(Q) # lookup: S. Typhimurium ATCC 14028 MIC, key = CC[C@H]1OC(=O)[C@H](C)C(=O)[C@H](C)[C@@H](O[C@@H]2O[C@H](C)C[C@H](N(C)C)[C@H]2O)[C@](C)(OC)C[C@@H](C)C(=O)[C@H](C)[C@H]2N(CCCCn3cnc(-c4cccnc4)c3)C(=O)O[C@]12C [Telithromycin, reference compound]
(A) 4

(Q) # lookup: S. Typhimurium ATCC 14028 MIC, key = CC[C@H]1OC(=O)[C@H](C)[C@@H](O[C@H]2C[C@@](C)(OC)[C@@H](O)[C@H](C)O2)[C@H](C)[C@@H](O[C@@H]2O[C@H](C)C[C@H](N(C)C)[C@H]2O)[C@](C)(O)C[C@@H](C)CN(C)[C@H](C)[C@@H](O)[C@]1(C)O [Azithromycin, reference compound]
(A) 4
